# Test system: Mycobacterium tuberculosis
# Procedure Text: Cornell - Phenotypic assay to identify agents that inhibit growth of Mycobacterium tuberculosis
# Format: functional
# Design: scale not given: direction of the effect not stated beside the values
# Cond: 10 mM as filed; unlikely as a test dose
About 900 (1.7%) of roughly 53,000 compounds showed an effect of 50% or more. The sample as a whole holds a higher share of strong results than the screen did.
Quick rule for you: Percent Effect at 20% or higher means met, lower means not met.

• Cc1nccc(C2CN(Cc3ccc(-c4ccccc4C(=O)O)o3)C2)n1 = not met
• COc1ccccc1CNC(=O)C1=NN(c2ccc(C)cc2)C(=O)CN1 = met
• CCOC1CCN(C(=O)c2c(Cl)c3ccccc3n2C)CC1 = met
• O=C1[C@H]2CCCC[C@H]2C(=O)N1c1cnn(Cc2cccc(F)c2)c1 = met
• COCc1ccc(CNC(=O)C2=NN(c3ccccc3)C(=O)CN2)cc1 = not met
• O=C(NCc1cccnc1)C1=NN(c2ccccc2)C(=O)CN1 = not met
• Cc1ncc(C(=O)NCCNC(=O)c2ccccc2)s1 = not met
• CS(=O)(=O)c1cn[nH]c1C1CCCCN1C(=O)c1cncs1 (stereo unspecified) = not met
• O=C(c1n[nH]c(=O)c2ccccc12)N1CCCCC1c1ccn[nH]1 (stereo unspecified) = not met
• COCCN1CCCC(c2ncc(C(=O)N3CCOCC3)c(C)n2)C1 (stereo unspecified) = not met
• N#Cc1cccc(S(=O)(=O)N2CCCCC2C(N)=O)c1 (stereo unspecified) = not met
